// values below are reported growth
System: HCT-116 colon
experiment: NCI-60 one-dose screen, 48 h (100 = growth as untreated, 0 = no growth, -100 = all killed)
condition.info: 10 µM unless noted
About 83,000 compounds went through this panel and 20% of them were active in at least one assay; those are over-represented in the sample as a whole.
Value expressed in %; do not type the unit.

Here is how some compounds turned out for growth.
compound	target.system	result.type	test.result
Cc1ccc(-c2csc(NC(=O)N3CCN(c4cc5c(cc4F)c(=O)c(C(=O)O)cn5C4CC4)CC3)n2)cc1	HCT-116 colon	growth	11.4
Cc1[nH]c(C(=O)Nc2ccc(C(N)=O)cc2NC(C)C)c(Cl)c1Cl	HCT-116 colon	growth	81
CC(=O)c1c(Nc2ccc(F)c(F)c2F)[nH]c2c(F)cc(F)cc2c1=O	HCT-116 colon	growth	3.09
C=CC(=O)NCCOc1cccc(Nc2cc(NCCCNC(=O)C3CCC3)c(Br)cn2)c1	HCT-116 colon	growth	4.97
CN1CCN(CCCOC(=O)c2c3c(n4ccccc24)C(=O)c2ncccc2C3=O)CC1	HCT-116 colon	growth	-29.5
C/C(=N\Nc1nc(C)cs1)c1cc2ccccc2o1	HCT-116 colon	growth	79.3
COc1ccc(/C(C)=C(\c2ccc(OCCN3CCCCCC3)cc2)c2ccc(OC(=O)c3ccccc3)cc2)cc1	HCT-116 colon	growth	19.4
COc1cccc(NC(=O)c2cccc(C3CCc4c(cc(OC)c(OC)c4OC)O3)c2)c1 (stereo not given)	HCT-116 colon	growth	62.4
COc1cccc(C(=O)OCC(O)C(=O)NC23CC4CC(CC(C4)C2)C3)c1 (stereo not given)	HCT-116 colon	growth	96.7

Report growth, nothing else, for this compound: "Cc1c(Cl)cccc1C(=O)Nc1nc2c(s1)CN(C(=O)Nc1cccc(C(F)(F)F)c1)CC2" 13.3
